Reported %Inh values for a set of compounds
test system: INSRR; details: concentration: 1 μM, replicates: in singlicate; n = 1;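 also: KINOMEscan kinase panel screen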
endpointName: %Inh (%)

• CS(=O)(=O)c1ccc(-c2c(-c3ncn[nH]3)sc(N3CCOCC3)c2C#N)cc1 = 15
• Cl.O=C(Nc1cccc(-c2nn3ncccc3c2-c2ccnc(Nc3cccnc3)n2)c1)c1c(F)cccc1F = 9
• CC(=O)Nc1nc2cnc(Nc3cc(NC(=O)c4cccc(CCC#N)c4)ccc3C)nc2s1 = 0
• Cc1cccc(-c2nc(Nc3ccncc3)c3ccccc3n2)n1 = 0
• CCCc1ccc(S(=O)(=O)NC2CCN(c3ccnc(Nc4ccc(F)cc4)n3)C2)cc1 (centres unmarked) = 0
• O=C(Nc1n[nH]c2cc(-c3cccc(F)c3F)ccc12)C1CC1 = 0
• Cc1cccc(-c2cc(Nc3ccncc3)c3ccccc3n2)n1 = 0
• O=c1cc(N2CCOCC2)nc2n(Cc3cccc(Cl)c3Cl)ccn12 = 0
• NC(=O)c1nnc2ccccc2c1N = 12
• Cl.NC(=O)c1cccc(Nc2nccc(Nc3ccc(Oc4cccc(Cl)c4)c(Cl)c3)n2)c1 = 12
• COc1ccccc1CNC(=O)c1cc(C(=O)c2ccccc2C)c[nH]1 = 0
• Cc1cccc(-c2nc(Nc3cccc(C(N)=O)c3)c3ccccc3n2)n1 = 0
• COc1ccccc1-c1ccc2c(NC(=O)C3CC3)n[nH]c2n1 = 1
• Cc1cc(N2Cc3ccccc3C2)nc(Nc2ccc(S(=O)(=O)N3CCOCC3)cc2)n1.Cl = 0
• C[C@@H]1CCCCN1c1cc(-c2ccc3c(N)n[nH]c3c2)nc(N)n1 = 0
• COc1cc2ncnc(Nc3ccc4nc(-c5ccccc5)[nH]c4c3)c2cc1OC.Cl = 0
• Fc1cc(Cl)ccc1Nc1ccnc2cc(I)ccc12 = 0

----------
test system: BRAF; settings: concentration: 1 μM, replicates: in singlicate; n = 1
Each record is given satisfied if its reported %Inh is strictly below 1%. Records at or above 1% are given not satisfied.

* CN(C)CCN(C)C(=O)c1cc(-c2ccncc2)c(-c2ccc(Cl)c(O)c2)o1.Cl.Cl | not satisfied
* Cc1nnc(-c2ccc3occ(-c4ccc(S(C)=O)cc4)c3c2)[nH]1 (centres unmarked) | not satisfied
* COc1ccc2nc(-c3cccc(C)n3)nc(Nc3ccncc3)c2c1 | satisfied
* CCCc1ccc(S(=O)(=O)NC2CCN(c3ccnc(Nc4ccc(F)cc4)n3)C2)cc1 (centres unmarked) | satisfied
* O=C(Nc1n[nH]c2nc(-c3nccs3)c(Br)cc12)C1CC1 | not satisfied
* O=C(Nc1n[nH]c2cc(-c3cccc(F)c3F)ccc12)C1CC1 | satisfied
* Cl.Oc1ccc(-c2nc(-c3ccccc3)[nH]c2-c2ccncc2)cc1 | not satisfied
* COc1cccc(NC(=O)NC2CCN(c3ccnc(Nc4ccc(F)cc4)n3)C2)c1 (centres unmarked) | satisfied
* CN1C(=O)C(Nc2ccc(Cl)c(C(=O)O)c2)=C(c2ccc(Cl)cc2)C1=O | satisfied
* Cc1c(O)cccc1Nc1ccnc2ccc(C(F)(F)F)cc12.Cl | not satisfied
* Cn1cncc1-c1ccc2ncnc(Nc3ccc(OCc4ccccc4)cc3)c2c1 | not satisfied
* Nc1ncnc2[nH]c(-c3ccccc3)nc12 | not satisfied
* NC(=O)c1nnc2ccccc2c1N | not satisfied
* Nc1nc(-c2nccs2)c(-c2ccnc3ccccc23)s1 | satisfied
* Cn1ccc2ncnc(Oc3cccc(C(=O)Nc4ccccc4)c3)c21 | satisfied
* CC(C)(C)c1ccc(C(=O)Nc2cn3cc(-c4cccnc4)ccc3n2)cc1 | satisfied
* Cc1cccc(-c2nc(-c3ccc(S(C)(=O)=O)cc3)sc2-c2ccnc(NCCc3ccccc3)c2)c1 | not satisfied
* Cc1ccc(-c2cc(-c3c[nH]nc3-c3ccccn3)ccn2)cc1 | satisfied
* CC(=O)Nc1nc2cnc(Nc3cc(NC(=O)c4cccc(CCC#N)c4)ccc3C)nc2s1 | not satisfied
* Fc1cc(Cl)ccc1Nc1ccnc2cc(I)ccc12 | not satisfied
* COc1cc2nccc(Nc3ccc(NC(=O)c4ccc(C)cc4)c(O)c3)c2cc1OC.Cl | satisfied
* O=C(O)COc1ncnc2cc(-c3ccc4[nH]ncc4c3)sc12 | not satisfied
* COc1cc(Nc2nccc(N3CCC(NC(=O)Nc4cc(C)ccc4C)C3)n2)cc(OC)c1OC (centres unmarked) | not satisfied
* Cc1cccc(-c2cc(Nc3ccncc3)c3ccccc3n2)n1 | satisfied
* Cc1ccc(NC(=O)Nc2cccc(Cl)c2)cc1-c1ccc(C(=O)Nc2ccncc2)cc1 | not satisfied
* COc1cccc(-c2cc(-c3c[nH]nc3-c3ccccn3)ccn2)c1 | not satisfied
* COc1ccc(Nc2nccc(-c3cccc(NC(=O)c4cc5cc(F)ccc5[nH]4)c3)n2)cc1 | satisfied
* COC(=O)c1c(-c2ccccc2)c2cc(OC)ccc2c(=O)n1Cc1ccccc1 | not satisfied
* Cc1cc(N2Cc3ccccc3C2)nc(Nc2ccc(S(=O)(=O)N3CCOCC3)cc2)n1.Cl | satisfied
* CC(C)(C)c1ccc(C(=O)Nc2cn3cc(Cl)ccc3n2)cc1 | not satisfied
* COc1cc2ncn(-c3cc(OCC4CCCO4)c(C(N)=O)s3)c2cc1OC (centres unmarked) | satisfied
* COc1ccccc1-c1ccc2c(NC(=O)C3CC3)n[nH]c2n1 | not satisfied
* COC(=O)c1c(-c2ccccc2)c2cc(C(=O)O)ccc2c(=O)n1Cc1ccccc1 | not satisfied
